List of IL-8 [abs. corr.] values.
Target: T1, CD27 expressed on the cell surface (HT1080_CD27 cells) (human, UniProt P26842 20-260); note: test concentration or dose not given here
T1 sequence (looked up): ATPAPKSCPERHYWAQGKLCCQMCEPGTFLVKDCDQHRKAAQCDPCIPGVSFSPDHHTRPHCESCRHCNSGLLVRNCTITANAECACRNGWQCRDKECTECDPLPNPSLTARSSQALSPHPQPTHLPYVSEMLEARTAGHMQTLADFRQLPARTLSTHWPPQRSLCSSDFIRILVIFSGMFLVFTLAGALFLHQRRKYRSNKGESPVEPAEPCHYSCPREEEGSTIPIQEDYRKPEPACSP
Assay: cell-based or functional assay
Recorded Metric: IL-8 [abs. corr.]

Binder: P018.S.06.A.F01 (antibody, V domains shown, V regions on human Ig constant parts; also called AB27_107) VH: QSLEESGGRLVTPGTPLTLTCTASGFSLSSYYMTWVRQAPGEGLEWIGTISTAGNTYFASWAKGRFTISRTSTTVDLKMTSPTTEDTATYFCARDGAGDSNYYRNLWGQGTLVTVSS VL: AYDMTQTPASVEAAVGGTVTIKCQASESIDRFLAWYQQKPGQPPKLLIVDASTLESGVPSRFSGSGSGTEFTLTISDLESDNAATYYCQQGYSISDIDNVFGGGTEVVVK
Readout Value: 0.405 abs. corr.

Binder: P018.S.01.A.G02 (antibody, V domains shown, V regions on human Ig constant parts; also called AB27_21) VH: QEQLEESGGRLVTPGGTLTLTCTASGFSLSSYDMSWVRQAPGKGLEWIGYIWSDGNTDYATWAAGRFTASRASTTVDLKMTSLTTEDTATYFCARGYTGFFLWGPGTLVTVSS VL: DVVMTQTPSSVSAAVGGTVTIKCQASQSIGSSYLSWYQQKPGQPPKLLIYKTSTLASGVPSRFKGSGSGTEFTLTISDLESDDAATYYCQCTYYGGSWRVAFGGGTEVVVK
Readout Value: 0.848 abs. corr.

Binder: P018.S.05.A.F02 (antibody, V domains shown, V regions on human Ig constant parts; also called AB27_91) VH: QSVEESGGRLVTPGTPLTLTCTVSGFSLNNYGITWVRQAPGKGLEYIGYINYGGIAYYASWVNGRFTISKTSTTVDLKMTSLTAADTATYFCARGYGYYSAGNLWGQGTLVTVSS VL: AQVLTQTPSPVSAAVGGTVTINCQASQSVYDNNYLSWYQQKPGQPPKRLIYDASSLASGVPSRFSGSGSGTQFTLTISGVQSDDAATYYCAGEYSCLSDDCIAFGGGTEVVVK
Readout Value: 0.526 abs. corr.
